Test system: MCC26 cells (VN-MCC)
Experiment: qHTS cell viability (CellTiter-Glo, 72 h; primary and follow-up small molecule screen)
Assay type: cell-based, human
Applied Conditions: MCC26, 72h, Log (M) -10.1077
Record form. Attribute: Percent viability. Fill in for each entry.
Give bare numbers, in %.

Please review the following examples before continuing.
The recorded Percent viability for O=C(Nc1cccc(Cl)c1)Nc1ncc(CCNc2ncnc3ccsc23)s1 [SNS-314, reference compound] is 91.9

The recorded Percent viability for CCn1cc(-c2ccnc3[nH]c(-c4cccc(CN(C)C)c4)cc23)c(-c2ccc(NC(=O)N(C)C)cc2)n1 [GSK-1070916A, reference compound] is 89.3

The recorded Percent viability for Cc1cc(Nc2cc(N3CCN(C)CC3)nc(Sc3ccc(NC(=O)C4CC4)cc3)n2)[nH]n1 [Tozasertib, reference compound] is 88.7

Next:
The recorded Percent viability for CCS(=O)(=O)c1cccc(-c2cc(C(=O)NC3CCN(C)CC3)c(C)c3[nH]c4ncc(C)cc4c23)c1 [TAK-901, reference compound] is 63.2
